- study_system: TRPML3 (Homo sapiens, UniProt Q8TDD5)
- protocol_notes: Whole-cell patch-clamp, HEK293 cells transiently transfected with TRPML3
- Assay type: cell-based
- measurement_context: current density at −80 mV; 10 µM in standard bath solution; mean ±SEM (n≥3)
recorded_endpoint: nA/pF (-80 mV) (TRPML3) (nA/pF)
Answer with a number only, understood to be in nA/pF.

Examples with answers:
According to the records, this molecule CCOc1ccc(S(=O)(=O)NC(C)(C)C)cc1-c1nc(=O)c2c([nH]1)c(C(C)(C)C)nn2C [SN-1] displays nA/pF (-80 mV) (TRPML3) of −0.33

According to the records, this molecule CCOc1ccc(S(=O)(=O)N2CCCCCC2)c2ccccc12 [SF-31] displays nA/pF (-80 mV) (TRPML3) of −0.19

According to the records, this molecule CCCC(=O)Oc1c(S(=O)(=O)c2ccc(C)cc2)c(C)nn1C(C)(C)C [SF-71] displays nA/pF (-80 mV) (TRPML3) of −0.08

Now consider the entry below.
According to the records, this molecule CCOc1ccc(S(=O)(=O)N2CCCCC2)c(C)c1C [SF-32] displays nA/pF (-80 mV) (TRPML3) of −0.02

---

- study_system: UniProt Q7T1G6
- Format: cell-based
- measurement_context: HEK293, read-out: Max % Activation (Control)
# reported Emax; entries follow
Answer with a number only, understood to be in %.

According to the records, this molecule O=S(=O)(Nc1ccccc1N1CCOCC1)c1ccc(Cl)s1 displays Emax of 1

According to the records, this molecule COc1ccccc1C1CN=NC12CCCc1ccccc1C2=O (stereo not drawn) displays Emax of 2

According to the records, this molecule CCOc1ccc(S(=O)(=O)N2CCCCC2)c(C)c1C displays Emax of 2

---

# reported ⊗F340/F380 (TRPML3); entries follow
- study_system: TRPML3 (Homo sapiens, UniProt Q8TDD5)
- Sequence (Q8TDD5 1-553): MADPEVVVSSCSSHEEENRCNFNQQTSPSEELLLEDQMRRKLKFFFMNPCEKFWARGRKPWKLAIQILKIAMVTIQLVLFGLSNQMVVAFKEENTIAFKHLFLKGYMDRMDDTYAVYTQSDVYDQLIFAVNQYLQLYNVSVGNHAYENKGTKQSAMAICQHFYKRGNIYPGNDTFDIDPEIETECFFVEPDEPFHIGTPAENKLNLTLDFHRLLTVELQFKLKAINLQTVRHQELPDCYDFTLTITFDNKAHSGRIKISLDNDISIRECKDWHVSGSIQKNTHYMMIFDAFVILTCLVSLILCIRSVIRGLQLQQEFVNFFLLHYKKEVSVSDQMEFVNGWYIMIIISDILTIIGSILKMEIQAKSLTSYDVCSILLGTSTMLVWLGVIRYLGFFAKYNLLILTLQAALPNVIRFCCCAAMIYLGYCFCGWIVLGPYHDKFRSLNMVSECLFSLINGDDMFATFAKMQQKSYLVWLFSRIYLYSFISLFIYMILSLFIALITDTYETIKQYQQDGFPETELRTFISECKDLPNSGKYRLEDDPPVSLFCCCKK
- protocol_notes: Fura-2 calcium imaging, HEK293 cells transiently expressing TRPML3
- Assay type: cell-based
- measurement_context: 10 µM compound, mean ±SEM (n≥3)
Give the figure by itself; no unit, no explanation.

Examples with answers:
According to the records, this molecule Cc1ccc(S(=O)(=O)n2nccc2-c2c(-c3ccc(Cl)cc3)noc2C)cc1 displays ⊗F340/F380 (TRPML3) of 0.72

According to the records, this molecule COc1ccccc1C1CN=NC12CCCc1ccccc1C2=O (stereo not drawn) displays ⊗F340/F380 (TRPML3) of 0.56

According to the records, this molecule CCOc1ccc(S(=O)(=O)N2CCCCCC2)c2ccccc12 displays ⊗F340/F380 (TRPML3) of 1.00

According to the records, this molecule O=S(=O)(Nc1ccccc1N1CCCCC1)c1ccc(Cl)s1 displays ⊗F340/F380 (TRPML3) of 1.00

According to the records, this molecule Cc1ccc(N2CCN(S(=O)(=O)N3CCCCC3)CC2)c(C)c1 displays ⊗F340/F380 (TRPML3) of 0.99

Now consider the entry below.
According to the records, this molecule Cc1cc(C)c(C2=NOC3C4CCC(C4)C23)c(C)c1 (stereo not drawn) displays ⊗F340/F380 (TRPML3) of 1.08

---

- study_system: TRPML3 (Homo sapiens, UniProt Q8TDD5)
- Assay type: cell-based
- measurement_context: HEK293, read-out: Max % Activation (TRPML3)
# reported Emax; entries follow
Answer with a number only, understood to be in %.

Examples with answers:
According to the records, this compound CCCC(=O)Oc1c(S(=O)(=O)c2ccc(C)cc2)c(C)nn1C(C)(C)C displays Emax of 85

According to the records, this compound COc1ccccc1C1CN=NC12CCCc1ccccc1C2=O (stereo not shown) displays Emax of 102

According to the records, this compound O=S(=O)(Nc1ccccc1N1CCOCC1)c1ccc(Cl)s1 displays Emax of 174

According to the records, this compound CCCOc1cc(C)c(Cl)cc1S(=O)(=O)N(CC)CC displays Emax of 119

According to the records, this compound CCOc1ccc(S(=O)(=O)N2CCCCCC2)c2ccccc12 displays Emax of 130

According to the records, this compound Cc1ccccc1S(=O)(=O)c1c(C)cc(C)n(C(C)C)c1=O displays Emax of 138

Now consider the entry below.
According to the records, this compound CCOc1ccc(S(=O)(=O)N2CCCCC2)c(C)c1C displays Emax of 119

---

- study_system: danio rerio TRPN1 (Danio rerio, UniProt Q7T1G6)
- Sequence (Q7T1G6 1-1614): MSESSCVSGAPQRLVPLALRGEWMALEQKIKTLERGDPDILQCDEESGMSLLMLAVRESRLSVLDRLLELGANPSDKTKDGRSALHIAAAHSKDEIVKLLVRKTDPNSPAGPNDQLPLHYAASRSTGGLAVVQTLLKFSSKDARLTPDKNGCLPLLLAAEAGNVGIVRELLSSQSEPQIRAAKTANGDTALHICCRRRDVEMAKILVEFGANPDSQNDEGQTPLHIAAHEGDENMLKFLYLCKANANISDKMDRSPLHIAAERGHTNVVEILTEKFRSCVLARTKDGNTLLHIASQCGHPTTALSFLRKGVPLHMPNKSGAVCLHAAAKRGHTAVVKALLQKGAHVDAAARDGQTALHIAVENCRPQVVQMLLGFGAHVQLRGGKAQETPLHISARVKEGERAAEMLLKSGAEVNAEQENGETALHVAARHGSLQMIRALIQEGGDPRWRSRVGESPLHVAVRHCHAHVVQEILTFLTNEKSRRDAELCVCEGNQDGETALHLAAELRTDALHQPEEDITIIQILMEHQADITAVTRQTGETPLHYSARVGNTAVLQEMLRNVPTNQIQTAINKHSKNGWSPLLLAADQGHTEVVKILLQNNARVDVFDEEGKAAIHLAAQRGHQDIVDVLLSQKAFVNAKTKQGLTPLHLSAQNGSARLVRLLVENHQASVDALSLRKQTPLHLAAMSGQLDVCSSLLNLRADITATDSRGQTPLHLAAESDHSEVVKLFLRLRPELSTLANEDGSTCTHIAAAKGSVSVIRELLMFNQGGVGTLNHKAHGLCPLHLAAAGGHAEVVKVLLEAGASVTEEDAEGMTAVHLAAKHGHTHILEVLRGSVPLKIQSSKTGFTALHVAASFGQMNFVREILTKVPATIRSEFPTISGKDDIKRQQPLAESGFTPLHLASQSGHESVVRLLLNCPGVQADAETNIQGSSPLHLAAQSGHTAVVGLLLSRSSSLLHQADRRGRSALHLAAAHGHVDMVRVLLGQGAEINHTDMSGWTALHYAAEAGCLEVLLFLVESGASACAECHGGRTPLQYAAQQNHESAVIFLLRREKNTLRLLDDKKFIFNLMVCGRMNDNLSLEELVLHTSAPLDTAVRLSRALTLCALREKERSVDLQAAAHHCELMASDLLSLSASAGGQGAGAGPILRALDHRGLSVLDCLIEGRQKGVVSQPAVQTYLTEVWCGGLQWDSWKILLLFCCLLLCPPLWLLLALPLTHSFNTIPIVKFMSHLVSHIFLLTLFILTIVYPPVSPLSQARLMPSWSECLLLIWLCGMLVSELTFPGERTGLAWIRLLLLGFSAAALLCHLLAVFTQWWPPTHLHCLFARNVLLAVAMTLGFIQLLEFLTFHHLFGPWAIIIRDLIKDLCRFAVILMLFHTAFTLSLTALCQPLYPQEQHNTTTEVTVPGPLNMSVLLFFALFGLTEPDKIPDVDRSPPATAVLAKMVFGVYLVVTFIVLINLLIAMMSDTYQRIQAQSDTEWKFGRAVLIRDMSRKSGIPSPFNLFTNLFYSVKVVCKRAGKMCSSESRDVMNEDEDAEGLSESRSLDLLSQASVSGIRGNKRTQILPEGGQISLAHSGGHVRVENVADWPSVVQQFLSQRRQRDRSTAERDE
- Type: cell-based
- measurement_context: HEK293, read-out: Max % Activation (Control)
recorded_endpoint: Emax (%)
Answer with a number only, understood to be in %.

Examples with answers:
According to the records, this compound CCOc1ccc(S(=O)(=O)NC(C)(C)C)cc1-c1nc(=O)c2c([nH]1)c(C(C)(C)C)nn2C displays Emax of 6

According to the records, this compound O=S(=O)(NC1CCCCC1N1CCOCC1)c1ccc(Cl)cc1 (stereo not drawn) displays Emax of 61

According to the records, this compound CCOc1ccc(S(=O)(=O)N2CCCCCC2)c2ccccc12 displays Emax of 2

According to the records, this compound Cc1ccc(S(=O)(=O)n2nccc2-c2c(-c3ccc(Cl)cc3)noc2C)cc1 displays Emax of 8

According to the records, this compound CCCOc1cc(C)c(Cl)cc1S(=O)(=O)N(CC)CC displays Emax of 2

***
According to the records, this compound O=S(=O)(Nc1ccccc1N1CCCCC1)c1ccc(Cl)s1 displays Emax of 1

According to the records, this compound Cc1ccc(N2CCN(S(=O)(=O)N3CCCCC3)CC2)c(C)c1 displays Emax of 12

According to the records, this compound CCCC(=O)Oc1c(S(=O)(=O)c2ccc(C)cc2)c(C)nn1C(C)(C)C displays Emax of 2

According to the records, this compound Cc1ccccc1S(=O)(=O)c1c(C)cc(C)n(C(C)C)c1=O displays Emax of 1

According to the records, this compound CC1=CC(C)(C)N(C(=O)CN2C(=O)c3ccccc3C2=O)c2ccccc21 displays Emax of 47

According to the records, this compound Cc1cc(C)c(C2=NOC3C4CCC(C4)C23)c(C)c1 (stereo not drawn) displays Emax of 3

According to the records, this compound Cc1ccc(S(=O)(=O)Nc2ccccc2-c2ccccc2)cc1 displays Emax of 2
